Non-standard residues stand in square brackets, D forms with d. Residues, ends and D or L forms follow the SMILES beside them. *: point of attachment. Benzylsulfonyl = O=S(=O)(Cc1ccccc1)*; Sta = CC(C)C[C@H](N)[C@@H](O)CC(=O)O; Isovaleryl = CC(C)CC(=O)*; Nle = CCCC[C@H](N)C(=O)O; Nva = CCC[C@H](N)C(=O)O; Boc = CC(C)(C)OC(=O)*
Let's go through some pIC50 measurements on porcine pepsin (Sus scrofa, UniProt P00791) together.
Sequence (P00791 60-385): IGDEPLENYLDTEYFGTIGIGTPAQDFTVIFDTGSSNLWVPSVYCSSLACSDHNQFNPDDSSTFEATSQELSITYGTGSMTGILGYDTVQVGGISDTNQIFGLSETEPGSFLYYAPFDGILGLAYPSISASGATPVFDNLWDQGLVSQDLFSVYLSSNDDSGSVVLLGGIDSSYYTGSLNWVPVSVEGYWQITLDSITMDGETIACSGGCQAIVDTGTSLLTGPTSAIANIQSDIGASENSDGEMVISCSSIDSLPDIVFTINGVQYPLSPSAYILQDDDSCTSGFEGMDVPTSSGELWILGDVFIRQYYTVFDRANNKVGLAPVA
Quick note: pIC50 values are minus log10 of concentrations in mol/L.

COC(=O)C[C@H](O)[C@H](CC(C)C)NC(=O)[C@H](C)NC(=O)C[C@H](O)[C@H](CC(C)C)NC(=O)[C@H](Cc1ccccc1)NC(=O)[C@H](Cc1ccccc1)NS(=O)(=O)Cc1ccccc1 [SR 41939] (Benzylsulfonyl-FF[Sta]A[Sta]-OMe)    7.44
COC(=O)C[C@H](O)[C@H](CC(C)C)NC(=O)[C@H](C)NC(=O)C[C@H](O)[C@H](CC(C)C)NC(=O)[C@H](Cc1c[nH]c2ccccc12)NC(=O)[C@H](Cc1c[nH]c2ccccc12)NC(=O)OC(C)(C)C [SR 41376, Boc--Trp--Trp--Sta--Ala--Sta--OMe] (Boc-WW[Sta]A[Sta]-OMe)    6.92
CCC[C@H](NC(=O)[C@H](Cc1ccccc1)NC(C)=O)C(=O)N[C@@H](CC(C)C)[C@@H](O)CC(=O)N[C@@H](C)C(=O)N[C@@H](CC(C)C)[C@@H](O)CC(=O)OC [SR 41994, Ac--Phe--Nva--Sta--Ala--Sta--OMe] (Ac-F[Nva][Sta]A[Sta]-OMe)    7.89

I would be grateful if you could share the reported pIC50 for CCCC[C@H](NC(=O)[C@H](Cc1ccccc1)NC(=O)CC(C)C)C(=O)N[C@@H](CC(C)C)[C@@H](O)CC(=O)N[C@@H](C)C(=O)N[C@@H](CC(C)C)[C@@H](O)CC(=O)O [SR 42128, iVa--Phe--Nle--Sta--Ala--Sta--OH] (Isovaleryl-F[Nle][Sta]A[Sta]-OH) . 7.72

Lookup COC(=O)C[C@H](O)[C@H](CC(C)C)NC(=O)[C@H](C)NC(=O)C[C@H](O)[C@H](CC(C)C)NC(=O)CNC(=O)[C@H](Cc1ccccc1)NC(=O)CC(C)C [SR 42261, iVa--Phe--Gly--Sta--Ala--Sta--OMe] (Isovaleryl-FG[Sta]A[Sta]-OMe) 6.12

Then this molecule: COC(=O)C[C@H](O)[C@H](CC(C)C)NC(=O)[C@H](C)NC(=O)C[C@H](O)[C@H](CC(C)C)NC(=O)[C@H](Cc1ccccc1)NC(=O)[C@@H](Cc1ccccc1)NC(=O)OC(C)(C)C [SR 41518, Boc--(D)Phe--Phe--Sta--Ala--Sta--OMe] (Boc-[dF]F[Sta]A[Sta]-OMe) 6.32

The measured values listed here are drawn from patent US4481192A.
